# Experimental system: glucocorticoid receptor (Homo sapiens)
# Construct: endogenous in cells
# Sequence (P04150 1-777): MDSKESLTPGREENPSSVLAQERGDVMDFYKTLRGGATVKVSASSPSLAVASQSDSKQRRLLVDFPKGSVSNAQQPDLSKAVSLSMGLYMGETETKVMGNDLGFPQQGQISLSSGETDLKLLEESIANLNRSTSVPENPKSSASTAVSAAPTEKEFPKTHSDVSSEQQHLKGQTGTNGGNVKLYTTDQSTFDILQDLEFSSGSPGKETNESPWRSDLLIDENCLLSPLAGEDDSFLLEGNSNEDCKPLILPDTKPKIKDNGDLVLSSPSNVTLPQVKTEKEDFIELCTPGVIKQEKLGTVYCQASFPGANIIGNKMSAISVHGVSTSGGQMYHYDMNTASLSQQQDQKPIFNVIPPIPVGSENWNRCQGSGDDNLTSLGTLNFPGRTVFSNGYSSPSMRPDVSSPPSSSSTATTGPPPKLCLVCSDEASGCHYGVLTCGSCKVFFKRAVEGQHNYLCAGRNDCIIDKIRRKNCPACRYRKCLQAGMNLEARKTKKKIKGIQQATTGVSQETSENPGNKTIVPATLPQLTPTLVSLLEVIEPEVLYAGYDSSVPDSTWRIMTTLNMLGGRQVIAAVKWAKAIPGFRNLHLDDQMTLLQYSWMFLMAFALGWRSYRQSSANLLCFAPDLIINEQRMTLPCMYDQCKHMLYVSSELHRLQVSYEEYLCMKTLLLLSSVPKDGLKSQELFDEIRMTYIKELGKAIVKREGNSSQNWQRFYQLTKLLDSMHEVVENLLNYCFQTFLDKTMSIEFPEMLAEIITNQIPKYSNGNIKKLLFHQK
# Protocol notes: Ligand binding assay (GR BIND)
Documented Ki across a set of molecules
State the answer as a number, implicitly in nM.

>  <Molecule>
C[C@]12Cc3cnn(-c4ccccc4)c3C=C1CC[C@@H]2CN(CCc1ccccn1)S(=O)(=O)CC(F)(F)F

>  <Experimental system>
glucocorticoid receptor (Homo sapiens)

>  <Ki [nM]>
1.2

$$$$
>  <Molecule>
COC(=O)c1ccccc1S(=O)(=O)N(CCc1ccccc1F)C[C@H]1CCC2=Cc3c(cnn3-c3ccc(F)cc3)C[C@@]21C

>  <Experimental system>
glucocorticoid receptor (Homo sapiens)

>  <Ki [nM]>
1.1

$$$$
>  <Molecule>
Cn1cc(S(=O)(=O)N(CC2CCCO2)C[C@H]2CCC3=Cc4c(cnn4-c4ccc(F)cc4)C[C@@]32C)c(C(F)(F)F)n1 (stereo partly shown)

>  <Experimental system>
glucocorticoid receptor (Homo sapiens)

>  <Ki [nM]>
1

$$$$
>  <Molecule>
C[C@]12Cc3cnn(-c4ccc(F)cc4)c3C=C1CC[C@@H]2CN(CCO)S(=O)(=O)Cc1ccccc1

>  <Experimental system>
glucocorticoid receptor (Homo sapiens)

>  <Ki [nM]>
2.5

$$$$

// Ki lookup, molecule = C[C@]12Cc3cnn(-c4ccc(F)cc4)c3C=C1CC[C@@H]2CN(CC#N)S(=O)(=O)c1cccc(C#N)c1 , result: 2.5

// Ki lookup, molecule = Cc1oncc1S(=O)(=O)N(CCO)C[C@H]1CCC2=Cc3c(cnn3-c3ccc(F)cc3)C[C@@]21C , result: 4.6

// Ki lookup, molecule = C[C@]12Cc3cnn(-c4ccc(F)cc4)c3C=C1CC[C@@H]2CN(CCc1ccccc1F)S(=O)(=O)Cc1cccnc1 , result: 0.7

----------
# Experimental system: human GR (Homo sapiens, UniProt P04150)
# Sequence (P04150 1-777): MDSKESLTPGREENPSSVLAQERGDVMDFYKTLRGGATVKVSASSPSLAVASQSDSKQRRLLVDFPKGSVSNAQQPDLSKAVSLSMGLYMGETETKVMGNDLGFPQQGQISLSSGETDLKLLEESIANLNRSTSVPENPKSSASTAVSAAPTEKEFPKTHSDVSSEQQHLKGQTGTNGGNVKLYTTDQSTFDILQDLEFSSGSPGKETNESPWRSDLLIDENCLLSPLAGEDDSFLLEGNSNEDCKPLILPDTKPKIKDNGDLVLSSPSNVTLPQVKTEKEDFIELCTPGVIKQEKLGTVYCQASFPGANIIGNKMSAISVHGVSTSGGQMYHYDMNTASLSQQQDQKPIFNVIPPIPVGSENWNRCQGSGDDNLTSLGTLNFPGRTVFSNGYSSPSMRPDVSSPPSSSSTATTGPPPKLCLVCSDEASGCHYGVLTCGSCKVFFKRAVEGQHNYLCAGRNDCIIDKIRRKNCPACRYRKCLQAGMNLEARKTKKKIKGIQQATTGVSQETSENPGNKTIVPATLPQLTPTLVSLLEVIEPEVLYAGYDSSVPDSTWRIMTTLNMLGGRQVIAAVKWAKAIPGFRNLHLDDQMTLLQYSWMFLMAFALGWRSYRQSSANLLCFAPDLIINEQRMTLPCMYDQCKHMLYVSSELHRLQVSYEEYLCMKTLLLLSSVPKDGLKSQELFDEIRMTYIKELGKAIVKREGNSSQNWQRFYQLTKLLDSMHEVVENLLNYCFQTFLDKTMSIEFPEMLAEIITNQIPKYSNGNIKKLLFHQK
# Protocol notes: Transrepression Assay (GITAR), TNFα-β-lactamase reporter in U937 cells
# Assay type: cell-based
# Set-up: U937 cells contain an endogenous glucocorticoid receptor (GR); endogenous in cells; host or cells: U937 cells stably transfected with the TNF-alpha promoter/beta-lactamase reporter
# Condition notes: U-937, U937 cells; maximum activity; read-out: Transrepression U937 Cells GITAR Emax
Metric: Emax (%)
State the answer as a number, implicitly in %.

>  <Compound>
C[C@]12Cc3cnn(-c4ccc(F)cc4)c3C=C1CC[C@@H]2CN(CC1CC1)S(=O)(=O)c1ccccc1F [Example 2]

>  <Experimental system>
human GR (Homo sapiens, UniProt P04150)

>  <Emax (%)>
73.3

$$$$
>  <Compound>
C[C@]12Cc3cnn(-c4ccc(F)cc4)c3C=C1CC[C@@H]2CN(CC#N)S(=O)(=O)c1cccc2ccccc12 [Example 40]

>  <Experimental system>
human GR (Homo sapiens, UniProt P04150)

>  <Emax (%)>
19.8

$$$$
>  <Compound>
C[C@]12Cc3cnn(-c4ccc(F)cc4)c3C=C1CC[C@@H]2CN(CC#N)S(=O)(=O)c1ccccc1-c1ccccc1 [Example 53]

>  <Experimental system>
human GR (Homo sapiens, UniProt P04150)

>  <Emax (%)>
54

$$$$
>  <Compound>
Cc1noc(C)c1S(=O)(=O)NC[C@H]1CCC2=Cc3c(cnn3-c3ccc(F)cc3)C[C@@]21C [Example 161]

>  <Experimental system>
human GR (Homo sapiens, UniProt P04150)

>  <Emax (%)>
45

$$$$
>  <Compound>
CCCCCCCCS(=O)(=O)N(CCc1ccccc1F)C[C@H]1CCC2=Cc3c(cnn3-c3ccc(F)cc3)C[C@@]21C [Example 104]

>  <Experimental system>
human GR (Homo sapiens, UniProt P04150)

>  <Emax (%)>
10.2

$$$$

// Emax lookup, compound = C[C@H](O)CN(C[C@H]1CCC2=Cc3c(cnn3-c3ccc(F)cc3)C[C@@]21C)S(=O)(=O)CC(F)(F)F [Example 113] , result: 94

// Emax lookup, compound = C[C@]12Cc3cnn(-c4ccc(F)cc4)c3C=C1CC[C@@H]2CN(CCO)S(=O)(=O)c1ccc(Oc2ccccc2)cc1 [Example 79] , result: 71.8

// Emax lookup, compound = C[C@]12Cc3cnn(-c4ccc(F)cc4)c3C=C1CC[C@@H]2CN(CC#N)S(=O)(=O)c1cccc(C#N)c1 [Example 36] , result: 72.2

// Emax lookup, compound = COC(=O)c1ccccc1S(=O)(=O)N(C[C@H]1CCC2=Cc3c(cnn3-c3ccc(F)cc3)C[C@@]21C)C[C@H](C)O [Example 187] , result: 71.5

// Emax lookup, compound = C[C@]12Cc3cnn(-c4ccc(F)cc4)c3C=C1CC[C@@H]2CN(CCO)S(=O)(=O)c1ccc(C#N)cc1Cl [Example 60] , result: 52

----------
# Experimental system: human GR (Homo sapiens, UniProt P04150)
# Protocol notes: Transrepression Assay (GITAR), TNFα-β-lactamase reporter in U937 cells
# Type: cell-based
# Design: U937 cells contain an endogenous glucocorticoid receptor (GR); endogenous in cells; host or cells: U937 cells stably transfected with the TNF-alpha promoter/beta-lactamase reporter
# Condition notes: GITAR Emax minus GRAMMER Emax
Metric: GITAR > GRAMM % SEP (%)
State the answer as a number, implicitly in %.

Recorded GITAR > GRAMM % SEP, per entry:
>  <Compound>
Cc1ccc(CCN(C[C@H]2CCC3=Cc4c(cnn4-c4ccc(F)cc4)C[C@@]32C)S(=O)(=O)c2ccccc2F)cc1 [Example 91]

>  <Units text>
%

>  <GITAR > GRAMM % SEP>
50.8

$$$$
>  <Compound>
CC(=O)Nc1ccc(S(=O)(=O)N(CC2CC2)C[C@H]2CCC3=Cc4c(cnn4-c4ccc(F)cc4)C[C@@]32C)cc1 [Example 6]

>  <Units text>
%

>  <GITAR > GRAMM % SEP>
36.0

$$$$
>  <Compound>
C[C@]12Cc3cnn(-c4ccc(F)cc4)c3C=C1CC[C@@H]2CN(CCO)S(=O)(=O)Cc1ccccc1C(N)=O [Example 198]

>  <Units text>
%

>  <GITAR > GRAMM % SEP>
7.3

$$$$
>  <Compound>
C[C@]12Cc3cnn(-c4ccc(F)cc4)c3C=C1CC[C@@H]2CN(CCCc1ccccc1)S(=O)(=O)c1ccccc1F [Example 195]

>  <Units text>
%

>  <GITAR > GRAMM % SEP>
17.1

$$$$
>  <Compound>
Cc1cc(S(=O)(=O)N(CC#N)C[C@H]2CCC3=Cc4c(cnn4-c4ccc(F)cc4)C[C@@]32C)c(C)o1 [Example 33]

>  <Units text>
%

>  <GITAR > GRAMM % SEP>
44.5

$$$$

// GITAR > GRAMM % SEP lookup, compound = Cc1noc(C)c1S(=O)(=O)N(CC1CC1)C[C@H]1CCC2=Cc3c(cnn3-c3ccc(F)cc3)C[C@@]21C [Example 11] , result: 23.1

// GITAR > GRAMM % SEP lookup, compound = C[C@]12Cc3cnn(-c4ccc(F)cc4)c3C=C1CC[C@@H]2CN(CCc1ccccn1)S(=O)(=O)Cc1ccncc1 [Example 166] , result: 15.3

// GITAR > GRAMM % SEP lookup, compound = C[C@]12Cc3cnn(-c4ccc(F)cc4)c3C=C1CC[C@@H]2CN(CC#N)S(=O)(=O)c1cccc(Cl)c1Cl [Example 26] , result: 10.2
